Biological target: human GLP-1 receptor (hGLP1R) (human, UniProt P43220 24-463)
Assay: cell-based or functional assay
Numbered stars: 1 amine (or outer) side, 2 acyl side, 3 side chain; on linkers, the order of the positions; unused ones are H or OH. Square brackets hold non-standard residues; d marks the D form. Side chains are listed from the residue outwards. Ends that are not written are not given here. * marks the point of attachment. C20 diacid = O=C(O)CCCCCCCCCCCCCCCCCCC(=O)*; γGlu = O=C(O)[C@H](CCC(=O)[*:2])N[*:1]; AEEA = NCCOCCOCC(=O)O; Aib = CC(C)(N)C(=O)O
assay_endpoint: pEC50 hGLPR1

Return the recorded pEC50 hGLPR1 value; entry: H[Aib]EGTFTSDVSVLKE[Aib]AAAQRFLEHLV-NH2 (not fully specified (residue 14)) [SEQ ID NO: 15]
10.1 -log M

Return the recorded pEC50 hGLPR1 value; entry: H[Aib]EGTFTSDVSLLKEEA[Aib]LQRFLEHLV-NH2 (not fully specified (residue 14)) [SEQ ID NO: 149]
10.9 -log M

Return the recorded pEC50 hGLPR1 value; entry: H[Aib]EGTFTSDVSFLK([AEEA-AEEA-γGlu-C20 diacid])EFAAAQRFLEHLV-NH2 [SEQ ID NO: 84]
10.1 -log M
